# assay-procedure: Toxicity, single oral application in mouse (LD 50)
# measurement-conditions: in vivo, dissolved in equivalent quantities of HCl
measurement-type: LD50 (mg/kg)
Number in mg/kg, nothing else.

>  <compound>
CC(C)(N)Cc1c[nH]c2ccccc12 [Methyl, methyl, α,α-dimethyl tryptamine, reference compound]

>  <units>
mg/kg

>  <LD50>
320

$$$$

# query: LD50 of entry CCC(N)(CC)Cc1c[nH]c2ccccc12 [Ethyl, ethyl, 3-(2'-ethyl-2'-aminobutyl)-indole]
620

Looking for the measured LD50 of CCC(C)(N)Cc1c[nH]c2ccccc12 (centres unmarked) [Methyl, ethyl, 3-(2'-amino-2'-methylbutyl)-indole] , can you help?
700

// LD50 lookup, key: CCCC(N)(CCC)Cc1c[nH]c2ccccc12 [Propyl, propyl, 3-(2'-propyl-2'-aminopentyl)-indole]
900

Could you tell me which LD50 is on file for CCCC(C)(N)Cc1c[nH]c2ccccc12 (centres unmarked) [Methyl, propyl, 3-(2'-methyl-2'-aminopentyl)-indole] ?
530

Data origin: patent US3947584A
